Target: AMP-activated protein kinase, AMPK (Homo sapiens) (UniProt P54646+O43741+P54619+Q9UGJ0+Q9Y478+Q13131+Q9UGI9)
Test name: AMP-dependent Kinase enzyme assay. An in vitro enzyme assay that detects ADP turnover that is directly proportional to AMPK activity. This uses naive AMPK that is activated during the assay with MK-8722
Type: functional
Design: scale not given: direction of the effect not stated beside the values
Experimental conditions: 30 µM
Recorded Percent Effect by entry
Endpoint label: Percent Effect (%)

>>> print(df.to_string())
                                   molecule  quantity_unit  result_number
0  COC1CCN(c2ccc(F)cc2CN(C)C(C)C(N)=O)CC1 (stereo not drawn)              %           8.56
1  Cc1cc(F)ccc1N1CCCC(NC(=O)CCCn2ccnc2)C1 (stereo not drawn)              %           8.09
2  CCc1nc2n(n1)CC(NCc1nc3ccccc3o1)CC2 (stereo not drawn)              %           2.97

---

Target: Arginase-2, mitochondrial (Homo sapiens) (UniProt P78540)
Sequence (P78540 whole entry): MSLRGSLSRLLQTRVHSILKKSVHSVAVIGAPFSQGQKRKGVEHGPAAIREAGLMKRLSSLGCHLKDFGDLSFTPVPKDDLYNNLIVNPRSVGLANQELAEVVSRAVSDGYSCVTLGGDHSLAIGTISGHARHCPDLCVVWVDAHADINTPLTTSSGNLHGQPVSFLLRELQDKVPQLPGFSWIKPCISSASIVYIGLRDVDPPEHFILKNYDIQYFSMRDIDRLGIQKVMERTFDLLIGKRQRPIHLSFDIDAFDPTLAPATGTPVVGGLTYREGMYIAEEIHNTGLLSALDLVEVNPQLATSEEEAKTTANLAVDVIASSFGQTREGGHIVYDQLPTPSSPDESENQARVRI
Test name: in vitro enzyme assay to detect the production of urea directly proportional to the activity of Arginase II; note: in the data most compounds retested in dose-response had high values
Assay type: functional
Parameters: scale not given: direction of the effect not stated beside the values
Experimental conditions: 33.3 µM
Recorded Percent Effect by entry
Endpoint label: Percent Effect (%)

                                   molecule                                    target  quantity_unit  result_number
0  COc1ccc(CC(=O)N2C[C@@H]3COC[C@]3(CN(C)C)C2)cc1  Arginase-2, mitochondrial (Homo sapiens) (UniProt P78540)              %          -6.07
1               O=C(NCCCNc1ccccc1)c1scnc1Cl  Arginase-2, mitochondrial (Homo sapiens) (UniProt P78540)              %          0.444
2  O=C(c1ccc(OCC2CC2)nc1)N1CCCC(n2cncn2)C1 (stereo not drawn)  Arginase-2, mitochondrial (Homo sapiens) (UniProt P78540)              %           7.79
3         Cn1ncc(NCc2cc(F)cc(F)c2)c(Cl)c1=O  Arginase-2, mitochondrial (Homo sapiens) (UniProt P78540)              %          -10.6
4  CCOc1ncccc1NC(=O)NC1CCCN(c2ncccn2)C1 (stereo not drawn)  Arginase-2, mitochondrial (Homo sapiens) (UniProt P78540)              %           -8.4
5  CC(NC(=O)CN(C)S(C)(=O)=O)c1nnc2n1CCCCC2 (stereo not drawn)  Arginase-2, mitochondrial (Homo sapiens) (UniProt P78540)              %            -15
6  CC(C)NC(=O)C(c1ccccc1)N1CCn2c(nnc2C2CC2)C1 (stereo not drawn)  Arginase-2, mitochondrial (Homo sapiens) (UniProt P78540)              %          -2.87
7   COC(=O)N1C[C@H]2CC[C@@H]1CN(Cc1cscn1)C2  Arginase-2, mitochondrial (Homo sapiens) (UniProt P78540)              %          -1.05

---

Target: Chromo domain-containing protein 1 (Saccharomyces cerevisiae (strain ATCC 204508 / S288c) (Baker's yeast)) (UniProt P32657)
Sequence (P32657 whole entry, the tested form may be a part): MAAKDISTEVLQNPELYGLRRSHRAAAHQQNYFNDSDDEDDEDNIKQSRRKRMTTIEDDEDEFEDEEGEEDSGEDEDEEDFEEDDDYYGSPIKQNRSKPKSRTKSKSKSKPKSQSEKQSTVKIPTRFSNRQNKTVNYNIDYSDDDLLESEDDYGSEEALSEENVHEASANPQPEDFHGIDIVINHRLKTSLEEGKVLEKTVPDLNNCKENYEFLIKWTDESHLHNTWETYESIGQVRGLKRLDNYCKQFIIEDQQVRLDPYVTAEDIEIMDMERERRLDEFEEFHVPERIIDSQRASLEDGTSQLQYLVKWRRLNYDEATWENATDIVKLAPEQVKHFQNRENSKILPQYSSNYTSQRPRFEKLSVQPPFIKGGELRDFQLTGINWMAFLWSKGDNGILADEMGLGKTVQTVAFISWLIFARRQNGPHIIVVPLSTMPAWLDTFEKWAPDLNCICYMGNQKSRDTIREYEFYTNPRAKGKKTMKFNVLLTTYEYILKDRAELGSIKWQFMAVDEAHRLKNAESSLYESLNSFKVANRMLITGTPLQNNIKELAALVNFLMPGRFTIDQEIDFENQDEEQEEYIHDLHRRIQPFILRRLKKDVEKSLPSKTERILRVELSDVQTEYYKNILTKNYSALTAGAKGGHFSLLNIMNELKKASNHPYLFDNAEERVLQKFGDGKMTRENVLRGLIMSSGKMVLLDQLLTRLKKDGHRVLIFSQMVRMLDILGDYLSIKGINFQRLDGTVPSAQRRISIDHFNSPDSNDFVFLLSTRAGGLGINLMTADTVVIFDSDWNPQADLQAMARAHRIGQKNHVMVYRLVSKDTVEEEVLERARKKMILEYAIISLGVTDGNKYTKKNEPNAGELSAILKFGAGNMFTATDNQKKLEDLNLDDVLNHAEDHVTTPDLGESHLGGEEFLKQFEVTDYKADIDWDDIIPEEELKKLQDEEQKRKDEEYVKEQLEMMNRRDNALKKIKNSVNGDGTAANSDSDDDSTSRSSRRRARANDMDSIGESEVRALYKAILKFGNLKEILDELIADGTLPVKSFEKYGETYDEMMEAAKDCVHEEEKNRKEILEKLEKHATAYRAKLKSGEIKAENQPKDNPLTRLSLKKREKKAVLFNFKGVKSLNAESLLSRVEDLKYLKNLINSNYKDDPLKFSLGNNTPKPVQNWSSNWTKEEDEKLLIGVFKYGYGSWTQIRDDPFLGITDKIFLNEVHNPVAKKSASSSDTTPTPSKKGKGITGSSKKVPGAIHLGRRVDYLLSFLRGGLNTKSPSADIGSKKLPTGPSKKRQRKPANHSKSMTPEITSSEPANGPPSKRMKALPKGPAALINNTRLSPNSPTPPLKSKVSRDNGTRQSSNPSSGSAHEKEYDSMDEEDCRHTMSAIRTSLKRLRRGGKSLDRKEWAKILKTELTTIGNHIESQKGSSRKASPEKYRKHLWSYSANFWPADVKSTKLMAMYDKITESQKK
Test name: ScCHD-1 Enzyme Inhibition Assay; note: in the data most compounds retested in dose-response had high values
Format: functional
Set-up: scale not given: direction of the effect not stated beside the values
Experimental conditions: 30 µM
Endpoint label: Percent Effect

                                    molecule   result
 0  N#Cc1cccc(N2CC3(CCN(C(=O)c4cccnc4)C3)CC2=O)c1 (stereo unspecified)   -3.29%
 1      O=c1[nH][nH]cc1-c1ccnc(NCCN2CCCC2)n1   -14.5%
 2  COc1ccc(C(N)c2cccc(S(C)(=O)=O)c2)cc1 (stereo unspecified)   -12.4%
 3  Cc1ccc(-c2nc(CN3CCCC(Cn4cncn4)C3)no2)cc1 (stereo unspecified)    9.47%
 4  CCn1c(Cn2cncn2)nnc1C1CCN(Cc2ccc(C)o2)CC1   -3.96%
 5  CN(Cc1nnc(C2CC2)o1)C1CCN(CCCc2cnn(C)c2)C1 (stereo unspecified)   -5.79%
 6  COc1ccccc1CCN(C)C(=O)NC(C)c1nncn1C (stereo unspecified)   -8.54%
 7    O=C(C1CC1)N1CC[C@H](O)[C@@H]1Cc1ccccc1   -12.8%
 8     Cn1cc(NC(=O)N2CCC(c3ccccc3)CC2)ccc1=O    1.81%
 9     Cn1cc(CN2CCCN(C(=O)c3cc[nH]n3)CC2)cn1   -1.64%
10          CCc1ncnc2c1CCN(Cc1ccc(OC)cc1)CC2  0.0386%
11  Cc1cn[nH]c1C1CCCCN1C(=O)CCN1CCCCCC1 (stereo unspecified)     -25%
12  CCCNC(=O)c1cc2c(c3ccccc3n2C)n1C(=O)N(C)C   -7.15%
13  Cc1cnc(CN2CCCC2c2noc(C)n2)cn1 (stereo unspecified)   -6.87%
14  Cn1ccnc1CN1CCOCC(Cc2ccccn2)C1 (stereo unspecified)   -19.9%
15  O=C(c1cc(C2CC2)[nH]n1)N1CCCC(n2cncn2)C1 (stereo unspecified)   -2.79%
16               O=C(NCC(=O)N1CCCCC1)c1ccoc1   -8.97%
17    O=C(CCOc1ccc(Cl)cc1)N1CCN(c2cnccn2)CC1   -8.03%
18      CN1CCCn2c(nc(CNC(=O)c3ccsc3)cc2=O)C1  -0.931%
19  CC(=O)N1C[C@@H](c2ccsc2)[C@@H]2CN(Cc3ccccc3)CC[C@@H]21   -25.4%
20   CCCc1n[nH]cc1C(=O)N1CCC(c2nccn2CCOC)CC1    20.9%
21  O=C(NCc1cc[nH]n1)NCC(O)c1ccc(F)cc1F (stereo unspecified)   -7.37%
22  CC(C)C(=O)N1CCC2(CCCN(CCOc3ccccc3)C2)C1 (stereo unspecified)    11.6%
23  CN(C)CC(=O)N1CCC2(CC(=O)N(c3cccc(C#N)c3)C2)C1 (stereo unspecified)   -1.61%
24  O=C(Nc1cccc2c1CCCC2)C1CCCN1c1nccs1 (stereo unspecified)    13.6%
25  Cn1cc(CN2CCC3(CC2)CC(c2ccncc2)C(=O)N3)cn1 (stereo unspecified)   -1.42%
26        CCS(=O)(=O)N(C)CC(=O)Nc1ccc(Br)cn1   -8.92%
27         CC(C)c1cc(NC(=O)CN2CCNC(=O)C2)on1   -9.71%
28  O=C(c1ccnnc1)N1C[C@@H](OCC2CCOCC2)[C@H]2OCCC[C@H]21      96%
29  Cc1nc(CN(C)C2CCN(CCCOc3ccccc3)C2)no1 (stereo unspecified)   -11.3%
30  CN(C)S(=O)(=O)N1CC[C@]2(C[C@H](Oc3ncccc3F)CO2)C1    14.3%
31  COc1ccc(CN2CCC3(CC(Nc4ccncn4)C3)C2)c(OC)c1 (stereo unspecified)   -20.7%
32  Cc1ccc(C(=O)N2CCC3(CC2)CC(N2CCOCC2)C3)cc1   0.386%
33  Cc1cccnc1CNCC1(O)CCCN(CC2CCCCC2)C1=O (stereo unspecified)   0.826%
34      CCc1sc(-c2nnc(CNCCn3cc(C)cn3)o2)cc1C   -8.57%
35    O=C(c1ccc2c(c1)OCO2)N1CCN(c2cnccn2)CC1    -6.8%
36  COCCc1noc(CN2CCOC(Cn3nc(C)cc3C)C2)n1 (stereo unspecified)   -6.59%
37  CCn1cc(CN2CCCC(c3[nH]ncc3S(C)(=O)=O)C2)cn1 (stereo unspecified)   -23.9%
38  CNC(=O)[C@@H]1C[C@H]2CN(Cc3nccs3)C[C@H]2N1C   -5.35%
39  COc1cccc(COCC(=O)N2CCCC(n3ccnc3C)C2)c1 (stereo unspecified)    2.95%
40  O=C1CCC2(CCN(Cc3ccc(F)cc3)CC2)N1Cc1ccccc1   -4.62%
41  c1ccc(Cn2ccnc2CN2CCCC2c2noc(C3CC3)n2)cc1 (stereo unspecified)   -12.1%
42  CCc1cc(O)nc(C2CCCN2C(=O)c2cccnc2)n1 (stereo unspecified)   -14.4%
43  COc1ccc2c(c1)OCC(CNC(=O)c1ccncc1)C2 (stereo unspecified)    71.9%
44  COc1cc(C)nc(N2CCN(C(=O)COCC(F)(F)F)CC2)n1   -3.52%
45            CNC(=O)c1cc(S(=O)(=O)C(C)C)cs1   -10.6%

---

Target: Protein translocase subunit SecA (Escherichia coli (strain K12))
Test name: Assay to Identify E. coli SecA ATPase Inhibitors
Type: functional
Set-up: scale not given: direction of the effect not stated beside the values
Experimental conditions: 30 µM
Results with a measured potency or affinity are listed apart.
Endpoint label: Percent Effect (%)

In [3]: df
Out[3]:
                                    compound                                    target  quantity_unit  result_number
 0  N#Cc1ccccc1C(=O)N1C[C@H](CO)C[C@H](CN2CCCC2)C1  Protein translocase subunit SecA (Escherichia coli (strain K12))              %          -4.41
 1  Cc1ccc(-c2nc(CCNC(=O)NC3CCN(C)CC3)co2)cc1  Protein translocase subunit SecA (Escherichia coli (strain K12))              %          -4.38
 2  CC(C)(C)c1n[nH]c(C2CN(C(=O)c3ccsc3)CCO2)n1 (stereo unspecified)  Protein translocase subunit SecA (Escherichia coli (strain K12))              %          -1.88
 3  Cc1cnn(CC2CN(CC(=O)N(C)Cc3cccs3)CCO2)c1 (stereo unspecified)  Protein translocase subunit SecA (Escherichia coli (strain K12))              %          -1.07
 4  CCc1nc(C2CCCN2C(=O)c2nc(C)n3ccccc23)no1 (stereo unspecified)  Protein translocase subunit SecA (Escherichia coli (strain K12))              %          -0.63
 5  CCCNC(=O)c1cc2c(c3ccccc3n2C)n1C(=O)N(C)C  Protein translocase subunit SecA (Escherichia coli (strain K12))              %          -4.26
 6  Cc1cc(NC(=O)N(CC2CCOC2)C2CC2)no1 (stereo unspecified)  Protein translocase subunit SecA (Escherichia coli (strain K12))              %           -2.1
 7  Fc1cnc(N2CCOCC3(CCCN(c4nncs4)C3)C2)nc1 (stereo unspecified)  Protein translocase subunit SecA (Escherichia coli (strain K12))              %          -8.43
 8     Cn1cc(CN2CCCN(C(=O)c3cc[nH]n3)CC2)cn1  Protein translocase subunit SecA (Escherichia coli (strain K12))              %          -1.81
 9  Fc1cccnc1CN1CCCCC1c1ccn2ccnc2n1 (stereo unspecified)  Protein translocase subunit SecA (Escherichia coli (strain K12))              %          -5.06
10  CNC(=O)COc1ccccc1CNC1CCc2ncnn2C1 (stereo unspecified)  Protein translocase subunit SecA (Escherichia coli (strain K12))              %          -1.08
